- target-entity: Voltage-gated inwardly rectifying potassium channel KCNH2 (Homo sapiens)
- Sequence (Q12809 whole entry): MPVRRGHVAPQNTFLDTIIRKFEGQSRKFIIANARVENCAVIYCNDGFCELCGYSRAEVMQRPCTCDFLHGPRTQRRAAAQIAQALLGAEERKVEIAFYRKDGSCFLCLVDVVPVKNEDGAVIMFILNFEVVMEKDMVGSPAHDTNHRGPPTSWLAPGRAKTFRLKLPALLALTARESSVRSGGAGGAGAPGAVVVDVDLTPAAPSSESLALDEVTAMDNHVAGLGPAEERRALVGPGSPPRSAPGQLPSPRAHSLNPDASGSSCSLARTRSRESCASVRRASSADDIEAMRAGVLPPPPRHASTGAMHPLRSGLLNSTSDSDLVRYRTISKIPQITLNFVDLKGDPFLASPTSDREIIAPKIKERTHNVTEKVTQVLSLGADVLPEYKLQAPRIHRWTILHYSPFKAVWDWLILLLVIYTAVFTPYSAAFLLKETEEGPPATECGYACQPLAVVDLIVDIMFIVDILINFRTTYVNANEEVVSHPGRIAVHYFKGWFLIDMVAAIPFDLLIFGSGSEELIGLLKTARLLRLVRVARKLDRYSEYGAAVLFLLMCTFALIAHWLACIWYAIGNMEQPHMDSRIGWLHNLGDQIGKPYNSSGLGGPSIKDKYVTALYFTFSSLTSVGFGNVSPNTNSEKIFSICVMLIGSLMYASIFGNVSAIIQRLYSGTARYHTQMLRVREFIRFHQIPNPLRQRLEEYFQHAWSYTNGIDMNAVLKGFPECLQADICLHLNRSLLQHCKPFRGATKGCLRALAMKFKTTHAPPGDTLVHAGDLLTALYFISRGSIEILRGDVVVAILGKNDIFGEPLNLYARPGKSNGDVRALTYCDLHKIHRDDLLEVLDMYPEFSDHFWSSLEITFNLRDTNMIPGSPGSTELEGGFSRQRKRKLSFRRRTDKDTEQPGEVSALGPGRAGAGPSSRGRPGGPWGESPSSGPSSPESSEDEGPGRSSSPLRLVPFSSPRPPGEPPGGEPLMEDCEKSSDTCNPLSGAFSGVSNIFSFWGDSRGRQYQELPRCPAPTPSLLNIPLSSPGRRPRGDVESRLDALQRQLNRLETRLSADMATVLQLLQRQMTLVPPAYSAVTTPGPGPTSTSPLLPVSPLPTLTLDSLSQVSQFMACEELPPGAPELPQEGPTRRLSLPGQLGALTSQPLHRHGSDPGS
- experiment-summary: Displacement of [3H]-MK499 from human ERG IKr channel expressed in HEK293 cell membranes
Measured IC50, listed per entry for reference.

- molecule: "Nc1cccc(C(c2cccnc2)C(O)c2cccnc2-c2cc(Cl)cc(Cl)c2)n1 (mixture of isomers)"
  test-readout: "IC50"
  endpoint-value: "> 30 µM"
- molecule: "OC(c1cccnc1-c1cccc(Cl)c1)C(c1cccnc1)c1cccnc1 (racemic)"
  test-readout: "IC50"
  endpoint-value: "> 30 µM"
- molecule: "FC(F)(F)c1cccc(-c2ncccc2CC(c2cccnc2)c2cccnc2)c1"
  test-readout: "IC50"
  endpoint-value: "> 30 µM"

In the following, a different molecule is considered.
Exercise: # lookup: IC50 of `Clc1cccc(-c2ncccc2CC(c2cccnc2)c2cccnc2)c1`
Key: > 30 µM
